target.desc: ZDHHC20 (UniProt Q5W0Z9)
Sequence (Q5W0Z9 whole entry, looked up): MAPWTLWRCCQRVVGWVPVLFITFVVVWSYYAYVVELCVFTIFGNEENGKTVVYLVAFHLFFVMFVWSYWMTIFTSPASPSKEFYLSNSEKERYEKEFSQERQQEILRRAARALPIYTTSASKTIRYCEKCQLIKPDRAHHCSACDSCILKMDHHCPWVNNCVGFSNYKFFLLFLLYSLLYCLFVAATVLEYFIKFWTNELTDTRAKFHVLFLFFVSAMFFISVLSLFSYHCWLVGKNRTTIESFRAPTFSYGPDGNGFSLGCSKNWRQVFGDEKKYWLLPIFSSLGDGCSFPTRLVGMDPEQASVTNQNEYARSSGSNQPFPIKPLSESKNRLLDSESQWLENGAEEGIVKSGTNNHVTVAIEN
assay: log2 fold change, soluble protein after heating vs DMSO (PISA); higher = thermal stabilisation; K562 cells, 10 uM, 30 min; active = over 0.2 and 3.5 SD of the protein, either way, in both replicates (recomputed)
About 7,900 targets were measured; listed, in parts, are those with a hit and a random draw of the rest. About 0.6% of all pairs of compound and target were hits.
measured.quantity: log2 fold change
Give the value as a plain number.

entry.smiles: CON(C)C(=O)N1N=C(c2cc(F)ccc2F)S[C@@]1(CCCN)c1ccccc1
log2 fold change: 0.008

entry.smiles: CC(C)(O)CC(=O)NCCn1ccc2ncnc(Nc3ccc(Oc4cccc(C(F)(F)F)c4)c(Cl)c3)c21
log2 fold change: -0.082

entry.smiles: Cc1ccc(NC(=O)c2ccc(CN3CC[C@H](N(C)C)C3)c(C(F)(F)F)c2)cc1Nc1nccc(-c2cncnc2)n1
log2 fold change: 0.104

Okay, now this compound:
Tell me measured log2 fold change for `Cc1cc(Nc2cc(CN3CCOCC3)c3nc(C)c(Cc4ccc(Cl)cc4F)n3n2)n[nH]1` please. 0.018
